Sourced from patent US20210238260

Quick reference: % of WT kcat/KM of the listed items.
Biological target: Factor X (FX), P00742
Sequence (P00742 whole entry, looked up): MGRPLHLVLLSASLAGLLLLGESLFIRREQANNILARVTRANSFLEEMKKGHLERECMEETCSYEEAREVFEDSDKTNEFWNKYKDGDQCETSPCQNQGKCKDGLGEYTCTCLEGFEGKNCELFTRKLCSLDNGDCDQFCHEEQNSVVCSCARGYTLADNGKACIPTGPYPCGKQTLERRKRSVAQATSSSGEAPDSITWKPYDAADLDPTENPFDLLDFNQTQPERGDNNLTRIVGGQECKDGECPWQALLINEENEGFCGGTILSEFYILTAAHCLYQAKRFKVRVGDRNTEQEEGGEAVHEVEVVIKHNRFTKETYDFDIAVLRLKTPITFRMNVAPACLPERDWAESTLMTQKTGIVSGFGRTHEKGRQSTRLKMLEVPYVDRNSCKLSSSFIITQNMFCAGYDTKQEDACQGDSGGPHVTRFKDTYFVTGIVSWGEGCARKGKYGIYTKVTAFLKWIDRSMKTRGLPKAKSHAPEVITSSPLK

Sample answers from the record:
1. FIXa-D104N/K106S/Y155F/K247N/N249S/R318Y/R338E/R403E/E410N (protein) chain 1: YNSGKLEEFVQGNLERECMEEKCSFEEAREVFENTERTTEFWKQYVDGDQCESNPCLNGGSCKDDINSYECWCPFGFEGKNCELDVTCNIKNGRCEQFCKNSANNSVVCSCTEGYRLAENQKSCEPAVPFPCGRVSVSQTSKLTR chain 2: VVGGEDAKPGQFPWQVVLNGKVDAFCGGSIVNEKWIVTAAHCVETGVKITVVAGEHNIEETEHTEQNRSVIRIIPHHNYNAAINKYNHDIALLELDEPLVLNSYVTPICIADKEYTNIFLKFGSGYVSGWGRVFHKGYSALVLQYLRVPLVDRATCLESTKFTIYNNMFCAGFHEGGRDSCQGDSGGPHVTEVEGTSFLTGIISWGEECAMKGKYGIYTKVSEYVNWIKNKTKLT: 292%
2. FIXa variant D104N/K106S/Y155F/R318Y/R338E/R403E/E410N (protein) chain 1: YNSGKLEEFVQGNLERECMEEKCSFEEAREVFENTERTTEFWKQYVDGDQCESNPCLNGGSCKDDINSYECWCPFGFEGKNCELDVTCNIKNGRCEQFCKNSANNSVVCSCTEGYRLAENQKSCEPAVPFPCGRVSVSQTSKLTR chain 2: VVGGEDAKPGQFPWQVVLNGKVDAFCGGSIVNEKWIVTAAHCVETGVKITVVAGEHNIEETEHTEQKRNVIRIIPHHNYNAAINKYNHDIALLELDEPLVLNSYVTPICIADKEYTNIFLKFGSGYVSGWGRVFHKGYSALVLQYLRVPLVDRATCLESTKFTIYNNMFCAGFHEGGRDSCQGDSGGPHVTEVEGTSFLTGIISWGEECAMKGKYGIYTKVSEYVNWIKNKTKLT: 382%

// % of WT kcat/KM lookup, key: FIXa variant Y155F/R318Y/R338E/R403E (protein) chain 1: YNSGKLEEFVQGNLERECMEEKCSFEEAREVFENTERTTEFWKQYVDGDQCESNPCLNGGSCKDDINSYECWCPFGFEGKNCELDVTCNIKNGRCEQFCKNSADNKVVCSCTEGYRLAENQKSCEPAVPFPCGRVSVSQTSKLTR chain 2: VVGGEDAKPGQFPWQVVLNGKVDAFCGGSIVNEKWIVTAAHCVETGVKITVVAGEHNIEETEHTEQKRNVIRIIPHHNYNAAINKYNHDIALLELDEPLVLNSYVTPICIADKEYTNIFLKFGSGYVSGWGRVFHKGYSALVLQYLRVPLVDRATCLESTKFTIYNNMFCAGFHEGGRDSCQGDSGGPHVTEVEGTSFLTGIISWGEECAMKGKYGIYTKVSEYVNWIKEKTKLT
189%

Can you share its % of WT kcat/KM? I mean this protein: FIXa-Y155F/K247N/N249S/R338E/T343R/R403E (protein) chain 1: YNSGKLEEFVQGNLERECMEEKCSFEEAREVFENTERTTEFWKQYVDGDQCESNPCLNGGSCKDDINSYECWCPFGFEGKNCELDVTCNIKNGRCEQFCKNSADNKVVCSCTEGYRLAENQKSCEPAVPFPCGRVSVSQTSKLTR chain 2: VVGGEDAKPGQFPWQVVLNGKVDAFCGGSIVNEKWIVTAAHCVETGVKITVVAGEHNIEETEHTEQNRSVIRIIPHHNYNAAINKYNHDIALLELDEPLVLNSYVTPICIADKEYTNIFLKFGSGYVSGWGRVFHKGRSALVLQYLRVPLVDRATCLESTKFRIYNNMFCAGFHEGGRDSCQGDSGGPHVTEVEGTSFLTGIISWGEECAMKGKYGIYTKVSEYVNWIKEKTKLT
1269%

I have this protein here, FIXa variant R338E/R403E/E410N (protein) chain 1: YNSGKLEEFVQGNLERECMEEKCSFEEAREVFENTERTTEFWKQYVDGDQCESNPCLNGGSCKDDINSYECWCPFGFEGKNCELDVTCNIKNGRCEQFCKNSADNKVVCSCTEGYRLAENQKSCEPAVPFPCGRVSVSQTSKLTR chain 2: VVGGEDAKPGQFPWQVVLNGKVDAFCGGSIVNEKWIVTAAHCVETGVKITVVAGEHNIEETEHTEQKRNVIRIIPHHNYNAAINKYNHDIALLELDEPLVLNSYVTPICIADKEYTNIFLKFGSGYVSGWGRVFHKGRSALVLQYLRVPLVDRATCLESTKFTIYNNMFCAGFHEGGRDSCQGDSGGPHVTEVEGTSFLTGIISWGEECAMKGKYGIYTKVSEYVNWIKNKTKLT , and I need its recorded % of WT kcat/KM.
411%

May I ask what % of WT kcat/KM has been recorded for FIXa variant D203N/F205T/R338A (protein) chain 1: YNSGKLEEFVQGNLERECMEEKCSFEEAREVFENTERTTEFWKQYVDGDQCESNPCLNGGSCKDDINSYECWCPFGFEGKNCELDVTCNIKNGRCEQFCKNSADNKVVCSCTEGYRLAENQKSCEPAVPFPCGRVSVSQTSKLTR chain 2: VVGGEDAKPGQFPWQVVLNGKVNATCGGSIVNEKWIVTAAHCVETGVKITVVAGEHNIEETEHTEQKRNVIRIIPHHNYNAAINKYNHDIALLELDEPLVLNSYVTPICIADKEYTNIFLKFGSGYVSGWGRVFHKGRSALVLQYLRVPLVDRATCLASTKFTIYNNMFCAGFHEGGRDSCQGDSGGPHVTEVEGTSFLTGIISWGEECAMKGKYGIYTKVSRYVNWIKEKTKLT ?
135%

I have this protein here, FIXa-Y155F/K247N/N249S/R318Y/T343R/E410N (protein) chain 1: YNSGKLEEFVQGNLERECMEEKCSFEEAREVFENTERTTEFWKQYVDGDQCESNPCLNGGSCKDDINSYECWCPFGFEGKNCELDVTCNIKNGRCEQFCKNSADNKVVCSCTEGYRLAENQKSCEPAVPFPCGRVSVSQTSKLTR chain 2: VVGGEDAKPGQFPWQVVLNGKVDAFCGGSIVNEKWIVTAAHCVETGVKITVVAGEHNIEETEHTEQNRSVIRIIPHHNYNAAINKYNHDIALLELDEPLVLNSYVTPICIADKEYTNIFLKFGSGYVSGWGRVFHKGYSALVLQYLRVPLVDRATCLRSTKFRIYNNMFCAGFHEGGRDSCQGDSGGPHVTEVEGTSFLTGIISWGEECAMKGKYGIYTKVSRYVNWIKNKTKLT , and I need its recorded % of WT kcat/KM.
668%
